# System: lacZ under control of the tetA promoter (PtetA) in E. coli KM3
# Format: cell-based
# condition-parameters: Table 4; chlorimuron 20 ppm; 48 hrs at 30° C.
observed-property: relative β-galactosidase activity, inducer Ci

{"molecule": "L1-44: SU-responsive TetR(B) variant, library L1 hit, SEQ ID NO: 13 (protein, Sulfonylurea responsive repressor L1-44) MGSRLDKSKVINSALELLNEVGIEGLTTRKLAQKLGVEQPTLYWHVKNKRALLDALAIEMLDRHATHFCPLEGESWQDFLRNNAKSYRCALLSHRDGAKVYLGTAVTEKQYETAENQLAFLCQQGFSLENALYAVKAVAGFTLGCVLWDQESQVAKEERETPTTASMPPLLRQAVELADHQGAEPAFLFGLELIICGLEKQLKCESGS", "reported-value": 6.7}
{"molecule": "L1-20: SU-responsive TetR(B) variant, library L1 hit, SEQ ID NO: 6 (protein, Sulfonylurea responsive repressor L1-20) MGSRLDKSKVINSALELLNEVGIEGLTTRKLAQKLGVEQPTLYWHVKNKRALLDALAIEMMDRHQTHFCPLEGESWQDFLRNNAKSMRCALLSHRDGAKVFLGTAWTEKQYETVENLLAFLCQQGFSLENALYALNAVATFTLGCVLWDQEKQVAKEERETPTTDSMPPLLRQAHELGDHQGAEPAFLFGLELIICGLEKQLKSESGS", "reported-value": 13.5}
{"molecule": "L1-31: SU-responsive TetR(B) variant, library L1 hit (protein, Sulfonylurea responsive repressor L1-31) MGSRLDKSKVINSALELLNEVGIEGLTTRKLAQKLGVEQPTLYWHVKNKRALLDALAIEMLDRHATHFCPLEGESWQDFLRNNAKSMRCALLSHRDGAKVMLGTRATEKQYETVENRLAFLCQQGFSLENALYAVRAVHWFTLGCVLIDQEMQVAKEERETPTTDSMPPLLRQAYELYDHQGAEPAFLFGLELIICGLEKQLKCESGS", "reported-value": 1.1}
{"molecule": "L1-24: SU-responsive TetR(B) variant, library L1 hit (protein, Sulfonylurea responsive repressor L1-24) MGSRLDKSKVINSALELLNEVGIEGLTTRKLAQKLGVEQPTLYWHVKNKRALLDALAIEMLDRHNTHFCPLEGESWQDFLRNSAKSMRCALLSHRDGAKVLLGTAVTEKQYETTENSLAFLCQQGFSLENALYAIRAVRTFTLGCVLVDQERQVAKEERETPTTDSMPPLLRQAKELLDHQGAEPAFLFGLELIICGLEKQLKCESGS", "reported-value": 22.1}
